molecular target: Man(a1-2)Man(a1-2)Man(a1-6)[Man(a1-3)]Man; assay: glycan array binding signal (z-score within array); higher = stronger binding; settings: glycan notation: IUPAC condensed, linker removed
The entries come from a sample that favours the strongest signals as a whole.
# reported glycan array binding signal (z-score); entries follow
Could you keep your reply to the number by itself?

QUERY: Please report the recorded glycan array binding signal (z-score) for Cohesin-hDECTIN-1 (Homo sapiens) (protein) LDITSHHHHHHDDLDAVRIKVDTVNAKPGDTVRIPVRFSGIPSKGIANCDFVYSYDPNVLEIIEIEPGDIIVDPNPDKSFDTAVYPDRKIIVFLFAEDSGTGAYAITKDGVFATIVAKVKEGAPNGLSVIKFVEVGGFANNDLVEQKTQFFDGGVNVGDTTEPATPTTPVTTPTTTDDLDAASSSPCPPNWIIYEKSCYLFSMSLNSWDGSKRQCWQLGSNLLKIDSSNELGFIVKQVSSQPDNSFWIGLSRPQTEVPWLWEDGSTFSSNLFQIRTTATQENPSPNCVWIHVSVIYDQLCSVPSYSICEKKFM .
RESULT: -0.33

QUERY: Please report the recorded glycan array binding signal (z-score) for MVL (Microcystis viridis), Q9RHG4 (protein) MASYKVNIPAGPLWSNAEAQQVGPKIAAAHQGNFTGQWTTVVESAMSVVEVELQVENTGIHEFKTDVLAGPLWSNDEAQKLGPQIAASYGAEFTGQWRTIVEGVMSVIQIKYTF .
RESULT: -0.183

QUERY: Please report the recorded glycan array binding signal (z-score) for AT1G73650(15) (Arabidopsis thaliana), F4HRY1 (protein) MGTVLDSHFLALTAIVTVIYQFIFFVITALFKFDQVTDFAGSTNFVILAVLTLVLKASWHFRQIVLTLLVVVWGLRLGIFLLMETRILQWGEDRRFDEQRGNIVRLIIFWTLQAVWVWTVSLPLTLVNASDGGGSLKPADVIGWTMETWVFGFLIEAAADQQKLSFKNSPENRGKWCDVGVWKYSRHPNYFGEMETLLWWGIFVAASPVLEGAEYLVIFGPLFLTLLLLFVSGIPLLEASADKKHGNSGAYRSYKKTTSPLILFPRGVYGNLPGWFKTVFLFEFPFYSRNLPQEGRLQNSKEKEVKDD .
RESULT: -0.361
